Target: T1, VLP2 (virus-like particles of AAV2) (AAV2, UniProt P03135 1-735; P03135 1-598; P03135 1-533)
T1 construct: Empty AAV2 capsid; background says about 60 protein molecules, VP1:VP2:VP3 = 1:1:10; Immobilised on the ELISA plate
T1 sequence (P03135 whole entry, chain 1 of 3): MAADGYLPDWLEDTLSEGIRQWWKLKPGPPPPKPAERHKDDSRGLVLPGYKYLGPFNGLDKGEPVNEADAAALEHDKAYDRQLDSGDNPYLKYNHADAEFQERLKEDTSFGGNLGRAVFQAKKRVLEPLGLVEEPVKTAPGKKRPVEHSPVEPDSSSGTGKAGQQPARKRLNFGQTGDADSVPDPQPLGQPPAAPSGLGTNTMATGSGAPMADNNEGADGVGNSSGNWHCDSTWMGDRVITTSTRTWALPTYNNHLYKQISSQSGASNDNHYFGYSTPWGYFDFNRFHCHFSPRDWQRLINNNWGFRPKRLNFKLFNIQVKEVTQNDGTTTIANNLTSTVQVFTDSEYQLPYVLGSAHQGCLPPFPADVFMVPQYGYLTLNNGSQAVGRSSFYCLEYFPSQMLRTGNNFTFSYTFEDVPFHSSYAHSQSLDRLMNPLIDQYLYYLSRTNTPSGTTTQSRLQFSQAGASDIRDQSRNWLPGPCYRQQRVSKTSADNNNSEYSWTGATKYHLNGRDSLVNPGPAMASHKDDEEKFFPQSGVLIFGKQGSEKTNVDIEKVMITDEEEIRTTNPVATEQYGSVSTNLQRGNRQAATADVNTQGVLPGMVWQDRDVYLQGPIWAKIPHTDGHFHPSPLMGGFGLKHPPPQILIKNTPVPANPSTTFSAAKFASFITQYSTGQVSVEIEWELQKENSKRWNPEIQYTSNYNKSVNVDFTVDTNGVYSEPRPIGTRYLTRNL
T1 sequence (P03135 139-735, tags left off, chain 2 of 3): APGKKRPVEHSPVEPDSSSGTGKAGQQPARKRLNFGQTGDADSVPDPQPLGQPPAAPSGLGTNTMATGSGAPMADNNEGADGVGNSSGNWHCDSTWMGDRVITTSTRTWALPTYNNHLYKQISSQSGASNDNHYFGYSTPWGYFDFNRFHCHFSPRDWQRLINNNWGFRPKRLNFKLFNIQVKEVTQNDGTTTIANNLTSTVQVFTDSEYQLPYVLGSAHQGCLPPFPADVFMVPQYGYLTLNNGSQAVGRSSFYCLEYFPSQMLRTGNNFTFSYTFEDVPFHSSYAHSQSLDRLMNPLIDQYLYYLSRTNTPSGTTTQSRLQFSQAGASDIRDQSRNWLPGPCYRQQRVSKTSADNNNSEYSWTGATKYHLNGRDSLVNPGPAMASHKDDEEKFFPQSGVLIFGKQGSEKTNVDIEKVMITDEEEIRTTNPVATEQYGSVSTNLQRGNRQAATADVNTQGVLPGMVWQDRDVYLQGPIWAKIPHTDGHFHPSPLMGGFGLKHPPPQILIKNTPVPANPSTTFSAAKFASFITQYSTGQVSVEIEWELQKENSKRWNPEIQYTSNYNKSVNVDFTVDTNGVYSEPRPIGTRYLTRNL
T1 sequence (P03135 203-735, chain 3 of 3): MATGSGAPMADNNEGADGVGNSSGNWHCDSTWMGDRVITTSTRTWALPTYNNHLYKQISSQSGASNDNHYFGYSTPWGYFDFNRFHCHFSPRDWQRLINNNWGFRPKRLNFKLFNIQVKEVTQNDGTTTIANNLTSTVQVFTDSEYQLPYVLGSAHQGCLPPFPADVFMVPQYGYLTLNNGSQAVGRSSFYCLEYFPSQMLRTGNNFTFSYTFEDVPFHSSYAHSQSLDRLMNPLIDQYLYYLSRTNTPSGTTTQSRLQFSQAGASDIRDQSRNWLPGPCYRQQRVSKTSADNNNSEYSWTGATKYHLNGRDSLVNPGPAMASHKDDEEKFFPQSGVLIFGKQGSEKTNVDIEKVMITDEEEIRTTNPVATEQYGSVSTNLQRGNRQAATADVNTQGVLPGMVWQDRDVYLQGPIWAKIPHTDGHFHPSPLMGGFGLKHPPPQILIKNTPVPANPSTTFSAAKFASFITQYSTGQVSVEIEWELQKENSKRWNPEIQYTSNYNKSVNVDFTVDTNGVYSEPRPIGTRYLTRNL
Test: ELISA on VLP2; A450 after pH 3.0 51.5°C 15 min / 25°C
quantity measured: Residual activity after heat treatment [%] (%)

# binder, value observed
rows = [
    ("AVR4a (Ile319Phe, Tyr342Cys, Gly390Ser, Ser476Arg) (receptor) MGSAGESVQFTLPKNEVQLNAYVLQEPPKGETCTYDWQLITHPRDYSGEMEGKHSQILKLSKLTPGLYEFKVIVEGQNAHSEGYVNVTVKPEPRKNRPPIAIVSPQFQEISLPTTSTVIDGSQSTDDDKIVQYHWEELKGPLREEKISEDTAILKLSKLVPGNYTFRLTVVDSDGATNSTTANLTVNKAVDHHHHHH", 57),
    ("AVR4d (Tyr342Cys, Gly390Ser, Ser476Arg, Asn487Asp) (receptor) MGSAGESVQITLPKNEVQLNAYVLQEPPKGETCTYDWQLITHPRDYSGEMEGKHSQILKLSKLTPGLYEFKVIVEGQNAHSEGYVNVTVKPEPRKNRPPIAIVSPQFQEISLPTTSTVIDGSQSTDDDKIVQYHWEELKGPLREEKISEDTAILKLSKLVPGNYTFRLTVVDSDGATDSTTANLTVNKAVDHHHHHH", 66),
    ("AVR3 (AAV-binding protein No. 75; Tyr342Cys, Gly390Ser, Ser476Arg) (receptor) MGSAGESVQITLPKNEVQLNAYVLQEPPKGETCTYDWQLITHPRDYSGEMEGKHSQILKLSKLTPGLYEFKVIVEGQNAHSEGYVNVTVKPEPRKNRPPIAIVSPQFQEISLPTTSTVIDGSQSTDDDKIVQYHWEELKGPLREEKISEDTAILKLSKLVPGNYTFRLTVVDSDGATNSTTANLTVNKAVDHHHHHH", 21),
]
